For each record, write down the corresponding SDR Ave Max Response.
- ASSAYED TARGET: ABL1-N-HiBiT kinase domain (Homo sapiens)
- Sequence (P00519 233-500): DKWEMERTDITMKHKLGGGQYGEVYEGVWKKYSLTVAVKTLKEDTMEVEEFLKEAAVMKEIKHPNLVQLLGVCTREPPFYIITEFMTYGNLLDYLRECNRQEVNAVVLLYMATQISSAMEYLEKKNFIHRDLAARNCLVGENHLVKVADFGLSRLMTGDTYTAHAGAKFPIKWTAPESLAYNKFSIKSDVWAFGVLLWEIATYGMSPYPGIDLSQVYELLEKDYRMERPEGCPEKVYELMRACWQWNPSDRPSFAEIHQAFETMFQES
- PROCEDURE DETAILS: SDR assay, ABL1-N-HiBiT
- CONDITION DESCRIPTION: ABL1-N-HiBiT qHTS; average maximal SDR response
Counter-ions that a name gives are not always drawn.

c1ccc(-c2oc3ncnc(NC[C@@H]4CCCO4)c3c2-c2ccccc2)cc1	62.31
Cc1cc(O)c2c(c1)C(=O)c1cc(O)cc(O)c1C2=O	-3.42
COc1ccc(S(=O)(=O)N(C(C)=O)c2ccccc2/C=C/c2cc[n+]([O-])cc2)cc1	8.52
C=CC(=O)N1CCC(Oc2cc3c(Nc4ccc(Cl)c(Cl)c4F)ncnc3cc2OC)CC1	56.26
COc1cc2nccc(Oc3ccc(NC(=O)Nc4ccc(F)cc4F)c(F)c3)c2cc1OC	76.14

Respectfully, I request SDR Ave Max Response for each entry included below.
1. c1ccc2c(-c3cnn4cc(-c5ccc(N6CCNCC6)cc5)cnc34)ccnc2c1
2. CC(C)(C)n1nc(-c2cccc3ccccc23)c2c(N)ncnc21
3. Cc1cc(Nc2ncc3c(n2)N(C)C(=O)N(c2cc(NC(=O)c4cccc(C(F)(F)F)c4)ccc2C)C3)n(C)n1
4. C[C@@H]1CCNC(=O)c2cc3ccc(C(=O)Nc4nc5ccccc5n4CCCN(C)C)cc3n21
5. CCn1c(=O)c(-c2ccc(Cl)cc2Cl)cc2cnc(Nc3ccc(N4CCNCC4)c(F)c3)nc21
6. COc1cc2ncnc(-n3nc(-c4ccccn4)nc3N)c2cc1OC
7. Cc1nc(NC(=O)N2CCC[C@H]2C(N)=O)sc1-c1ccnc(C(C)(C)C(F)(F)F)c1
8. O=C(NC1CCNCC1)c1n[nH]cc1NC(=O)c1c(Cl)cccc1Cl

Output line:
71.14
61.87
68.08
21.22
67.12
102.45
66.17
9.60

Respectfully, I request SDR Ave Max Response for each entry included below.
1. Nc1nc(NCCNc2ncc(-n3ccnc3)c(-c3ccc(Cl)cc3Cl)n2)ccc1[N+](=O)[O-]
2. NC1(C(=O)N[C@@H](CCO)c2ccc(Cl)cc2)CCN(c2nc[nH]c3nccc2-3)CC1
3. CC[C@@](C)(Nc1ccnc(-c2c[nH]c3ncccc23)n1)C(=O)NCC(F)(F)F
4. Cc1cccc(/C=N/Nc2cc(N3CCOCC3)nc(OCCc3ccccn3)n2)c1
5. COc1ccc(-n2c(C)c([N+](=O)[O-])c3ccc(O)cc32)cc1
6. CCN(CC)CCOc1ccc(Nc2ncc3cc(-c4c(Cl)cccc4Cl)c(=O)n(C)c3n2)cc1.Cl.Cl.O [PD-166285 hydrate]
7. S=C(NCc1ccc2c(c1)OCO2)N1CCN(c2ncnc3c2oc2ccccc23)CC1
8. CN1CCN(CCCNc2ncc(Cl)c(-c3cc4c(C(=O)NC5CC5)cccc4s3)n2)CC1

Output line:
1: -28.48; 2: -4.45; 3: 85.00; 4: 7.50; 5: 10.66; 6: 51.60; 7: 8.96; 8: -19.98

Respectfully, I request SDR Ave Max Response for each entry included below.
1. COc1cc(N2CCOCC2)ccc1Nc1ncc(Cl)c(Nc2ccccc2NS(C)(=O)=O)n1 [CZC 54252 HCl]
2. COc1cc2ncnc(Oc3cccc(NC(=O)Nc4cc(C(C)(C)C(F)(F)F)on4)c3)c2cc1OC
3. Cc1[nH]c2ccccc2c1C1=C(NCCc2ccc(F)cc2)C(=O)N(C)C1=O

Output line:
[69.42, 83.27, -12.41]
